Molecular target: hCCR4 (Homo sapiens)
Sequence (P51679 1-360): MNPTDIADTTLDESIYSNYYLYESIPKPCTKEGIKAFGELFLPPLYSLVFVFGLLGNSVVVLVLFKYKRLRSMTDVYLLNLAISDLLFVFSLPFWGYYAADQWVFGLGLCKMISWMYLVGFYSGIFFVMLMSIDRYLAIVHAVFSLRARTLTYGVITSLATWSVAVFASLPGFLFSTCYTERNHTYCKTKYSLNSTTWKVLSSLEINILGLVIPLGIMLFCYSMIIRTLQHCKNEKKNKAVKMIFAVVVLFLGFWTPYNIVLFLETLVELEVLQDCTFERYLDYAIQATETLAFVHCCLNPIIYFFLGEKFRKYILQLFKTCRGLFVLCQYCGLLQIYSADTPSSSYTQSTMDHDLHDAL
Assay: Calcium flux assay
Settings: Chem5-hCCR4 cells, CCL22 at EC80 of 1.5 nM, FLIPR Calcium 6 dye; read-out: Potency (IC50)
pIC50: −log10 of the molar value.

{"COMPOUND": "CC(=O)NCCN1CCCC(C2CN(c3cnc4c(C(F)(F)F)nn([C@H](C)c5ccc(Cl)cc5Cl)c4n3)C2)C1 (mixture of isomers) [Example 45]", "pIC50": "6.30 to 7.00"}
{"COMPOUND": "CC(C)N1CCC[C@@H](C2CN(c3cnc4c(C#N)nn([C@H](C)c5ccc(Cl)cc5Cl)c4n3)C2)C1 (single isomer, unassigned)", "pIC50": "6.30 to 7.00"}
{"COMPOUND": "Cc1nn([C@H](C)c2ccc(Cl)cc2Cl)c2nc(N3CC([C@@H]4CCCN(CCC(N)=O)C4)C3)cnc12 (single isomer, unassigned)", "pIC50": "6.30 to 7.00"}
{"COMPOUND": "C[C@H](c1ccc(Cl)cc1Cl)n1nc(C#N)c2ncc(N3CC(C4CCCN(C5CCS(=O)(=O)CC5)C4)C3)nc21 (mixture of isomers)", "pIC50": "> 7.00"}
{"COMPOUND": "CC(C)C(=O)NCCN1CCC[C@@H](C2CN(c3cnc4c(C(F)(F)F)nn([C@H](C)c5ccc(Cl)cc5Cl)c4n3)C2)C1 (single isomer, unassigned) [Example 88]", "pIC50": "6.30 to 7.00"}

----------
Reported IC50 by item:
Molecular target: hCCR4 (Homo sapiens)
Test: Calcium flux assay
Details: Chem5-hCCR4 cells, CCL22 at EC80 of 1.5 nM, FLIPR Calcium 6 dye; read-out: Potency (IC50)
Protocol: Calcium Flux Assay. Compounds were evaluated in a calcium flux assay substantially performed as follows. Chem5-hCCR4 cells (EMD Millipore, Hayward, Calif.; HTS009C) were cultured under standard conditions and frozen in aliquots of 10×10^6 cells/mL. […] Assay plates and working solution of CCL22 were transferred to the FlexStation plate reader (Molecular Devices) at 37° C. for 5 min of equilibration. Fluorescence recordings at 485 excitation/525 emission were performed at 2.5 second intervals. […]
VALUE_TYPE: IC50

{"COMPOUND": "Cc1nn([C@H](C)c2ccc(Cl)cc2Cl)c2nc(N3CC([C@H]4CCCN(CCCO)C4)C3)cnc12 (single isomer, unassigned) [Example 14]", "EXPERIMENTAL_RESULT": "< 100 nM"}
{"COMPOUND": "CCCN1CCC[C@H](C2CN(c3cnc4c(C#N)nn([C@H](C)c5ccc(Cl)cc5Cl)c4n3)C2)C1 (single isomer, unassigned) [Example 73]", "EXPERIMENTAL_RESULT": "< 100 nM"}
{"COMPOUND": "CNC(=O)CCCN1CCC[C@@H](C2CN(c3cnc4c(C#N)nn([C@H](C)c5ccc(Cl)cc5Cl)c4n3)C2)C1 (single isomer, unassigned) [Example 68]", "EXPERIMENTAL_RESULT": "100 to 500 nM"}
{"COMPOUND": "C[C@H](c1ccc(Cl)cc1Cl)n1nc(C#N)c2ncc(N3CC([C@H]4CCCN(Cc5ncc[nH]5)C4)C3)nc21 (single isomer, unassigned) [Example 80]", "EXPERIMENTAL_RESULT": "< 100 nM"}
{"COMPOUND": "Cc1nn([C@H](C)c2ccc(Cl)cc2Cl)c2nc(N3CC(C4CCCN(CCC(=O)O)C4)C3)cnc12 (mixture of isomers) [Example 7]", "EXPERIMENTAL_RESULT": "100 to 500 nM"}
{"COMPOUND": "C[C@H](c1ccc(Cl)cc1Cl)n1nc(C#N)c2ncc(N3CC([C@@H]4CCCN(CCCC(=O)N(C)C)C4)C3)nc21 (single isomer, unassigned) [Example 74]", "EXPERIMENTAL_RESULT": "100 to 500 nM"}
{"COMPOUND": "C[C@H](c1ccc(Cl)cc1Cl)n1nc(C#N)c2ncc(N3CC([C@@H]4CCCN(Cc5cnc[nH]5)C4)C3)nc21 (single isomer, unassigned) [Example 111]", "EXPERIMENTAL_RESULT": "100 to 500 nM"}
{"COMPOUND": "C[C@H](c1ccc(Cl)cc1Cl)n1nc(C(F)(F)F)c2ncc(N3CC(C4CCCN(CCO)C4)C3)nc21 (mixture of isomers) [Example 42]", "EXPERIMENTAL_RESULT": "100 to 500 nM"}
{"COMPOUND": "COC(=O)NCCN1CCCC(C2CN(c3cnc4c(C(F)(F)F)nn([C@H](C)c5ccc(Cl)cc5Cl)c4n3)C2)C1 (mixture of isomers) [Example 49]", "EXPERIMENTAL_RESULT": "< 100 nM"}
{"COMPOUND": "Cc1nn([C@H](C)c2ccc(Cl)cc2Cl)c2nc(N3CC(C4CCCN(C5CC(C(=O)O)C5)C4)C3)cnc12 (mixture of isomers) [Example 16]", "EXPERIMENTAL_RESULT": "> 500 nM"}
{"COMPOUND": "C[C@H](c1ccc(Cl)cc1Cl)n1nc(C#N)c2ncc(N3CC(C4CCCN(Cc5c[nH]cn5)C4)C3)nc21 (mixture of isomers) [Example 60]", "EXPERIMENTAL_RESULT": "< 100 nM"}
